Recorded values, source BindingDB's records for doi:10.1021/jm2012062.

targetDesc: Low molecular weight protein-tyrosine phosphatase A (Mycobacterium tuberculosis (strain ATCC 25618 / H37Rv), UniProt P9WIA1)
Sequence (P9WIA1 whole entry): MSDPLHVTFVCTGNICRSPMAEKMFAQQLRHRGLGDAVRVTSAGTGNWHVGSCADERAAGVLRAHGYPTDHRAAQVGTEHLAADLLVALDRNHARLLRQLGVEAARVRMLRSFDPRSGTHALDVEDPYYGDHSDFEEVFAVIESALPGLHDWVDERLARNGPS
assay: Inhibition of Mycobacterium tuberculosis PTP-A
endpointName: IC50 (µM)
State just the number; it will be interpreted in µM.

- compoundString: "C=c1[nH]c(=Cc2[nH]c(-c3ccc[nH]3)cc2OC)cc1CCCCC"
  readoutValue: 8.8

Please find the next compound below.
For the compound `COc1cc(-c2[nH]ccc2Cl)oc1C1=c2[nH]c3cc2[C@H](C(C)C)[C@H]1CCCCCCCC=3` , give its measured IC50 value.
8.8
